Target: T1, human PACAP38 (human, not fully specified; C-terminal lysine is amidated; N-terminal or C-terminal biotin in the HTRF and PC-12 cell binding assays)
T1 construct: synthetic peptide, bought; also called huPACAP (1-38)
T1 peptide: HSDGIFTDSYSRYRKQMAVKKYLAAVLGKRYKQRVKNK
Assay: inhibition of 100 nM biotin-PACAP38 binding to PC-12 cells, TRF
readout-kind: IC50 (nM)
Number in nM, nothing else.

Below are worked cases with known answers.
>>> val("anti-PACAP antibody Ab15 (antibody, human IgG1, kappa, N297A, V domains shown, full-length rabbit/human chimeric antibody) VH: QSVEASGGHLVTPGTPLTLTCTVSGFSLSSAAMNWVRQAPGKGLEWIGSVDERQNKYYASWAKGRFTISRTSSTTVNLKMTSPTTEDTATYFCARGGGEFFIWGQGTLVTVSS VL: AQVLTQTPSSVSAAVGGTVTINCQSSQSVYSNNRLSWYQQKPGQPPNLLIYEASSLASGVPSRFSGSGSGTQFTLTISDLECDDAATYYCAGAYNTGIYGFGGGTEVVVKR")
36.7
>>> val("anti-PACAP antibody Ab9 (antibody, human IgG1, kappa, N297A, V domains shown, full-length rabbit/human chimeric antibody) VH: EQSGGGAEGGLVKPGGSLKLSCKASGFTISRDYWICWVRQAPGKGLEWIGCISAGGGSTDYANWVNGRFTLSRDIDQSTGCLQLNSLTDADTAMYYCAGNLEIWGQGTLVTVSS VL: AQVLTQTPSSVSAAVGGTVTINCQSSPSIYSGAFLSWFQQKPGQPPKFLIYEASKLASGVPSRFSGSGSGTQFTLTISDVQCDDAATYYCLGFYDCSSVDCHAFGGGTEVVVKR")
33.3
>>> val("anti-PACAP antibody Ab1 (antibody, human IgG1, kappa, N297A, V domains shown, full-length rabbit/human chimeric antibody) VH: QSVEESGGRLVTPGTPLTLTCTVSGFSLSSAVMNWVRQAPGKGLEWIGSIVASGTTYYASWANGRFTISKTSSTTMDLKMTSPTTEDTATYFCARGGGEFFIWGPGTLVTVSS VL: DPVMTQTPSSTSAAVGGTVTISCQSSESVYSNYLSWYQQKPGQPPNFLIYQASNLASGVPSRFKGSGSGTQFTLTITDLECDDAATYYCAGGYSENIVGFGGGTEVVVKR")
12.7
>>> val("anti-PACAP antibody Ab19 (antibody, human IgG1, kappa, N297A, V domains shown, full-length rabbit/human chimeric antibody) VH: QSVEASGGRLVTPGTPLTLTCTVSGFSLSSATMNWVRQAPGKGLEWIGLIGGNDERYYASWAKGRFTISKTSSTTVDLKMTSPTTEDTATYFCARGGGEFFIWGPGTLVTVSS VL: AQVLTQTPSSVSAAVGGTVTINCQSSESVYTNDRLSWYQQKPGQPPKLLIYEASKLASGVPPRFSGSGSGTQFTLTISDLECDDAATYYCAGAYSTSIHGFGGGTEVVVKR")
162

Query string: Data request, read-out IC50, for anti-PACAP antibody Ab12 (antibody, human IgG1, kappa, N297A, V domains shown, full-length rabbit/human chimeric antibody) VH: QSVEESGGRLVTPGTPLTLTCTASGFSLSSYAMGWVRQAPGKGLEWIGDISTYGTTDYASWVYGRFTISRTSTTVTLKMTSLTTEDTATYFCARDYWLSLWGQGTLVTVSS VL: AAVLTQTPSPVSAAVGGTVTIKCQSSQSVYDNNALAWYQQKPGQPPKLLIYAASTLASGVPSRFSGSGSGTEFTLTISGVQCDDAATYYCLGGYYDPADNAFGGGTEVVVKR
Result string: 22.6

Ref: patent US20190233498A1
